Values from PubChem BioAssay AID192

Tested on: BDF1 mice, B16 melanoma ip, median survival T/C
Experiment: NCI In Vivo Anticancer Drug Screen. Data for tumor model B16 Melanoma (intraperitoneal) in B6D2F1 (BDF1) mice
Conditions: endpoint: median survival time; dose: 400.0 mg/kg/injection; schedule: Q01DX009 (ip); vehicle: saline; higher = longer survival
Toxic doses and inconclusive results are not listed.
Please go through the items and note down their T/C.

// recorded T/C for O=C1CCCN1 : 94 % of control

// recorded T/C for NC(Cc1cnc[nH]1)C(=O)O (configuration not stated) (tested in a mixture with another compound) : 100 % of control

// recorded T/C for CC(O)CN1CC(C)OC(C)C1 (configuration not stated) : 97 % of control

// recorded T/C for CC(=O)CC(=O)Nc1ccc(C)c(C)c1 : 94 % of control

// recorded T/C for C=CN1CCCC1=O : 104 % of control

// recorded T/C for CC1CNC(=O)O1 (configuration not stated) : 97 % of control

// recorded T/C for C=CCc1cn(C2CC(O)C(CO)O2)c(=O)[nH]c1=O (configuration not stated) : 107 % of control

// recorded T/C for NC(=O)Nc1ccccc1 : 104 % of control

// recorded T/C for CCOC(CNC(=O)CC(C)=O)OCC : 106 % of control

// recorded T/C for COc1cc(C(N)=O)cc(OC)c1O : 118 % of control

// recorded T/C for O=C(O)[C@@H]1[C@H](C(=O)O)[C@H](C(=O)O)C[C@@H]1C(=O)O : 96 % of control

// recorded T/C for CC1CCC(O)C1O (configuration not stated) : 122 % of control

###

System: BDF1 mice, B16 melanoma ip, median survival T/C
Experiment: NCI In Vivo Anticancer Drug Screen. Data for tumor model B16 Melanoma (intraperitoneal) in B6D2F1 (BDF1) mice
Details: endpoint: median survival time; dose: 3.0 mg/kg/injection; schedule: Q01DX009 (ip); vehicle: saline
Inconclusive results and toxic doses are left out. Rule for the calls: active = survival T/C of 150% or more; inactive = T/C below 125% in these data.
Can you answer with just one of these options? y = active, n = inactive

**Q:** Hey, what did the test say about O=C(NCCCCCCCCCCNC(=O)N1CC1)N1CC1 ?
**A:** y

**Q:** Hey, what did the test say about CCOC(=O)NC1=C(N2CC2)C(=O)C(NC(=O)OCC)=C(N2CC2)C1=O ?
**A:** y

**Q:** Hey, what did the test say about FC(F)(F)c1ccc2c(c1)N(CCCN1CCN(CCN3CCOCC3)CC1)c1ccccc1S2 ?
**A:** n

**Q:** Hey, what did the test say about CCCCCCCCCCCc1n(Cc2ccccc2)cc[n+]1C ?
**A:** n

**Q:** Hey, what did the test say about C[CH2][Pb]([CH2]C)([CH2]C)[O][As](=O)(O)c1ccc(N)cc1 ?
**A:** n

**Q:** Hey, what did the test say about O=C1C(=O)C(Cl)=C(Cl)C(Cl)=C1Cl ?
**A:** n

###

Please go through the items and note down their T/C.
Test system: BDF1 mice, B16 melanoma ip, median survival T/C
Assay: NCI In Vivo Anticancer Drug Screen. Data for tumor model B16 Melanoma (intraperitoneal) in B6D2F1 (BDF1) mice
Conditions: endpoint: median survival time; dose: 200.0 mg/kg/injection; schedule: Q01DX009 (ip); vehicle: Klucel (hydroxypropylcellulose) (HPC); higher = longer survival
Inconclusive results and toxic doses are left out.

// recorded T/C for CCOc1ccc(N=Nc2ccc(N)cc2N)cc1 : 106 % of control

// recorded T/C for CC(=O)CC(=O)Nc1cccc(Cl)c1C : 106 % of control

// recorded T/C for Cc1ccc(NS(=O)(=O)c2ccccc2)cc1Cl : 90 % of control

// recorded T/C for CCN(N=Nc1ccc(C)cc1)N=Nc1ccc(C)cc1 : 96 % of control

// recorded T/C for Clc1ccc(C(Cl)(Cl)Cl)cc1Cl : 96 % of control

// recorded T/C for CC1(C)SC(C(NC(=O)COc2ccccc2)C(=O)O)NC1C(=O)O (stereo not drawn) : 105 % of control

// recorded T/C for CCCCOC(OCCCC)C(C)=O : 93 % of control

// recorded T/C for C/C=C/C(=O)OC(C)CCC(CC)CCCC (stereo not drawn) : 90 % of control

// recorded T/C for CCC(C)c1ccccc1OC(=O)Nc1ccc(OC)cc1 (stereo not drawn) : 100 % of control

// recorded T/C for O=[N+]([O-])c1cc([N+](=O)[O-])c(/C=C/c2ccccc2)c([N+](=O)[O-])c1/C=C/c1ccccc1 : 107 % of control

// recorded T/C for c1ccc(-c2nnc(-c3ccccn3)nn2)nc1 : 97 % of control

// recorded T/C for Cc1cnc2c(N)[nH]nc2n1 : 107 % of control

// recorded T/C for COc1cc(C2N(c3ccccc3)CCN2c2ccccc2)cc(OC)c1OC : 103 % of control
